- target_under_test: PKC-alpha (Homo sapiens)
- Construct: purchased Calbiochem
- experiment_description: In vitro kinase assay: peptide phosphorylation by PKC-alpha
- Type: biochemical
- condition_label: peptide concentration 10 uM
- Excerpt: Catalytically active preparations of the kinases of interest were either purchased or prepared. […] The conditions of the kinase assay and the amount of active kinase used varied with the kinase and with the accuracy needed. […] The choice of kinase buffer depended on the kinase being analyzed. […]
quantity: phosphorylation by PKC alpha
One number for each entry.

Below: 8 substances and their reported phosphorylation by PKC alpha.
148 (RELEQLKAEYLERRASRRRA) [compound 148] : 22
124 (PRLIRRGSKKRPAR) [compound 124] : 24
139 (RPTPGDGEKRSRIKKSKKRK) [compound 139] : 44
129 (VQRHRSMRKTFARYLSFRRD) [compound 129] : 37
115 (NRKKKRTSFKRKA) [compound 115] : 56
152 (DLIEGRKGAQIVKRASLKRG) [compound 152] : 12
125 (PLKEKKRERKTSSKSSVRKR) [compound 125] : 31
135 (KKKFRTPSFLKKSKK) [compound 135] : 19

Please state phosphorylation by PKC alpha for every substance in the list that follows.
1. 158 (VQMTWSYPDEKNKRASVRRR) [compound 158]
2. 151 (PQNSLKASNRKKKRTSFKRK) [compound 151]
3. 136 (RARRDSLKKIEIW) [compound 136]
4. 117 (NRKKKRTSFKRKA) [compound 117]

1: 11; 2: 16; 3: 28; 4: 39

###

- target_under_test: PKC-theta (Homo sapiens)
- Construct: His-tag; made in house; host or cells: baculovirus-infected Sf9 cells
- Sequence (Q04759 whole entry): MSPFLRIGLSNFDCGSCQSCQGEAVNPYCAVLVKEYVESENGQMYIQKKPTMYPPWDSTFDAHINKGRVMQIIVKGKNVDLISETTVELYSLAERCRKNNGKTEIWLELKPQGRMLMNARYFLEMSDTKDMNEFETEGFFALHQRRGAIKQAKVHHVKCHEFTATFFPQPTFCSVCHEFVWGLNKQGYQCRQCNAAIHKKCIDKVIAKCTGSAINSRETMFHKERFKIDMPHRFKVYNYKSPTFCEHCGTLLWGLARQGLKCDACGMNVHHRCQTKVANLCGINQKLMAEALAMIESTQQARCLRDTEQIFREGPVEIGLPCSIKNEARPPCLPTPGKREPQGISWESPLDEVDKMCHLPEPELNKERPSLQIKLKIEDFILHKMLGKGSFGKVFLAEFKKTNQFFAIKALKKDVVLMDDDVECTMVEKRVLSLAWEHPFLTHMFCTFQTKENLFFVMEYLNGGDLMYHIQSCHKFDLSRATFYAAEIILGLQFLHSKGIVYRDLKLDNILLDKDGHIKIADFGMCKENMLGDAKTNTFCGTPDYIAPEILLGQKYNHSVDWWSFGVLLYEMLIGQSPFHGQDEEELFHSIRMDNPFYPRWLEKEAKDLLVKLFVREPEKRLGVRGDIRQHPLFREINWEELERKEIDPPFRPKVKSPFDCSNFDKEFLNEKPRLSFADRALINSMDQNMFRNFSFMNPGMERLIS
- experiment_description: In vitro kinase assay: peptide phosphorylation by PKC-theta
- Format: biochemical
- condition_label: peptide concentration 1 uM
I'd appreciate it if you could supply phosphorylation by PKC theta values for the items below.

Study these solved cases before continuing.
153 (TYLLPDKSRQGKRKTSIKRD) [compound 153] : 22
137 (PSKSPSKKKKKFRTPSFLKK) [compound 137] : 40
116 (EEGTFRSSIRRLSTRRR) [compound 116] : 83
125 (PLKEKKRERKTSSKSSVRKR) [compound 125] : 39
149 (RVVQSVKHTKRKSSTVMK) [compound 149] : 13
118 (RPQNTLKASKKKKRASFKRK) [compound 118] : 67
133 (LEKRGMLGKRPRRKSSRRKK) [compound 133] : 46
167 (GLPAPGEDKSIYRRGSRRWR) [compound 167] : 12

Dear colleague, could you send me phosphorylation by PKC theta for each of the items below? Thanks.
1. 114 (KKKKRASFKRKSSKKG) [compound 114]
2. 151 (PQNSLKASNRKKKRTSFKRK) [compound 151]
3. 147 (RDIRQSPKRGFLRSASLGRR) [compound 147]
4. 117 (NRKKKRTSFKRKA) [compound 117]
5. 161 (KYKAFIRIPIPTRRHTFRRQ) [compound 161]

1: 100; 2: 25; 3: 20; 4: 84; 5: 19

###

- target_under_test: PKC-zeta (Homo sapiens)
- Construct: purchased Calbiochem
- Sequence (Q05513 1-592): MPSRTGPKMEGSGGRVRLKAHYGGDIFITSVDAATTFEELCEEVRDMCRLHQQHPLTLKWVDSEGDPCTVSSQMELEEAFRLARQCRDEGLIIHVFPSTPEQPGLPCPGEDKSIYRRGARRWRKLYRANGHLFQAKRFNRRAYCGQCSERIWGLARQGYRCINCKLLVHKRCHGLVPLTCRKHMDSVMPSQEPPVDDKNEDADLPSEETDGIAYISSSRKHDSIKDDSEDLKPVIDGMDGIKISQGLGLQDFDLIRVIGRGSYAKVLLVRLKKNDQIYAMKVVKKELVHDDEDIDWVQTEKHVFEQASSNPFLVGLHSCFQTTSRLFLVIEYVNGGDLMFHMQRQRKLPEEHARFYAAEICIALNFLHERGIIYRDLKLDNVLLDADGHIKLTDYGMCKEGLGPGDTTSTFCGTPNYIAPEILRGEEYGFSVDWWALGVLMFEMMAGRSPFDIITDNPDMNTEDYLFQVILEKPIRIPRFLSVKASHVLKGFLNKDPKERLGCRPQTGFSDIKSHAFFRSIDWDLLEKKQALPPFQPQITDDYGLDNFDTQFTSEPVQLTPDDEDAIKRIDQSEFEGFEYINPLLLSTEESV
- experiment_description: In vitro kinase assay: peptide phosphorylation by PKC-zeta
- Format: biochemical
- condition_label: normalized to best substrate
Think of 4% as a floor: if PKC-zeta phosphorylation stands on it or above, it is fulfilled; beneath it, not fulfilled.

Worked examples follow.
112 (KRPGKKGSNKRPGKR) [compound 112] : not fulfilled
87 (RQGKRKTSIKRDTVNPL) [compound 87] : not fulfilled
76 (HVRRRRGTFKRSKLRARD) [compound 76] : fulfilled
89 (EYLERRASRRRAV) [compound 89] : fulfilled
86 (RQRKRKLSFRRRTDKD) [compound 86] : fulfilled
80 (KKKKKRFSFKKSFKL) [compound 80] : fulfilled
95 (KKKFRTPSFLKKSKK) [compound 95] : fulfilled
113 (GENVLKKSMKSRVKG) [compound 113] : not fulfilled
104 (EKIKRSSLKKVDSLKK) [compound 104] : not fulfilled
90 (AQIVKRASLKRGKQ) [compound 90] : fulfilled

Would you say 109 (KEVVRTDSLKGRRGR) [compound 109] shows PKC-zeta phosphorylation at minimum 4%? not fulfilled

###

Exercise: state measured Measured in vitro phosphorylation by PKC-theta for each of the substances provided.
- target_under_test: PKC-theta (Homo sapiens)
- Construct: His-tag; made in house; host or cells: baculovirus-infected Sf9 cells
- experiment_description: In vitro kinase assay: peptide phosphorylation by PKC-theta
- Assay type: biochemical
- condition_label: normalized to best substrate
One number for each entry, in %.

187 (LRRKSSTRHIHA) [compound 187] : 48
174 (KKERRRNSINRN) [compound 174] : 83
210 (PLRRRESMHVEQ) [compound 210] : 16
179 (KRHYRKSVRSRS) [compound 179] : 65
207 (SFRGHITRKKLK) [compound 207] : 18
188 (ERGRRGSKKGSI) [compound 188] : 44
173 (RSGRRRGSQKS) [compound 173] : 85
196 (RWKRRRSYSREH) [compound 196] : 32

I need Measured in vitro phosphorylation by PKC-theta for every entry listed below, if you could help.
1. 192 (GNRKGKSKKWRQ) [compound 192]
2. 205 (EGRRSRSRRYSG) [compound 205]
3. 171 (RRGRRSTKKRRR) [compound 171]
4. 198 (RRRRPTKSKGSK) [compound 198]
5. 184 (FRASSRSTTK) [compound 184]

35
22
92
28
54

Please state, for each entry, its recorded Measured in vitro phosphorylation by PKC-theta.
1. 190 (RRRRHTMDKDSR) [compound 190]
2. 178 (RRRRSRTFSRS) [compound 178]
3. 170 (VKLRRSKKRTKR) [compound 170]
4. 172 (VRRRRSQRISQR) [compound 172]
5. 211 (RSRSYSRSRSR) [compound 211]
6. 195 (PGSSHRKTKK) [compound 195]

1. 40
2. 65
3. 98
4. 86
5. 16
6. 33

For every listed record, write down its Measured in vitro phosphorylation by PKC-theta.
1. 197 (ILRPSKSVKLRS) [compound 197]
2. 186 (DFRRRRSFRRIA) [compound 186]
3. 201 (TQDRRKSLFKKI) [compound 201]
4. 216 (SCRTSSRKRAGK) [compound 216]

32
50
25
11

###

Would you mind telling me the reported phosphorylation by PKC zeta of each entry?
- target_under_test: PKC-zeta (Homo sapiens)
- Construct: purchased Calbiochem
- Sequence (Q05513 1-592): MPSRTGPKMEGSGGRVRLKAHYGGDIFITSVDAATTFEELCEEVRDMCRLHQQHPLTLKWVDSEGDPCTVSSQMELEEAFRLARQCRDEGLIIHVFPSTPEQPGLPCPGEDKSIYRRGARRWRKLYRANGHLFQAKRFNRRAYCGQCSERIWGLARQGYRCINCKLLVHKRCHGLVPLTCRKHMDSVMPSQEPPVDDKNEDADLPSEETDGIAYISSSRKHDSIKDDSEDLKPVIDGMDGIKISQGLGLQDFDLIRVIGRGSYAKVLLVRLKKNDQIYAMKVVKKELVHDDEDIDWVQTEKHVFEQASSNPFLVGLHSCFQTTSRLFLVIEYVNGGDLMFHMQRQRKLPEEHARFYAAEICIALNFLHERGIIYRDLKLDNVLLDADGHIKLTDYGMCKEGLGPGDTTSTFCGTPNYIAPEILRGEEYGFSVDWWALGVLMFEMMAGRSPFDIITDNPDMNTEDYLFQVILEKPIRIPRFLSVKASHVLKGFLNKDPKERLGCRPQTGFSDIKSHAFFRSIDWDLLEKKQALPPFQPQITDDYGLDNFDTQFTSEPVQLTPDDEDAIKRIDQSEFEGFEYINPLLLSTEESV
- experiment_description: In vitro kinase assay: peptide phosphorylation by PKC-zeta
- Assay type: biochemical
- condition_label: peptide concentration 1 uM
Answers are plain numbers.

For each of the substances below, state phosphorylation by PKC zeta.
1. 120 (AKRRRLSSLRASTSK) [compound 120]
2. 157 (PSPSNETPKKKKKRFSFKKS) [compound 157]
3. 128 (QQVDRERPHVRRRRGTFKRS) [compound 128]
4. 130 (EYLERRASRRRAV) [compound 130]
5. 116 (EEGTFRSSIRRLSTRRR) [compound 116]
6. 139 (RPTPGDGEKRSRIKKSKKRK) [compound 139]
7. 155 (RWDKRRWRKIPKRPGSVHRT) [compound 155]

[43, 3, 14, 36, 100, 1, 19]

Below are 3 substances. Give each one its phosphorylation by PKC zeta.
1. 148 (RELEQLKAEYLERRASRRRA) [compound 148]
2. 122 (RAITSTLASSFKRRR) [compound 122]
3. 159 (LYARLARAYRRSQRASFKRA) [compound 159]

1. 20
2. 20
3. 25

Requested field: phosphorylation by PKC zeta. Item: 144 (LSSMFGTLPRKSRKGSVRKQ) [compound 144] 16
